Assay: Half life in rat hepatocytes
Type: ADME, cell-based, Hepatocyte
Could you please report measured half-life for the items listed next?
# output: bare number, implied unit min

Query: So what does the record say about half-life for CCNC(=O)c1cc(-c2ccc(NC(=O)[C@H](O)c3cc(F)cc(F)c3)cc2C)cnc1N ?
Response: 34

Query: So what does the record say about half-life for Cc1cc(NC(=O)[C@H](O)c2cc(F)cc(F)c2)ccc1-c1cnc(N)c(C(=O)NC(C)C)c1 ?
Response: 9.3

Query: So what does the record say about half-life for Cc1cc(NC(=O)[C@H](O)c2cc(F)cc(F)c2)ccc1-c1cnc(N)c(C(=O)NC2CC2)c1 ?
Response: 131

Query: So what does the record say about half-life for Cc1cc(NC(=O)[C@H](O)c2cccc(Cl)c2)ccc1-c1cnc(N)c(C(=O)NC(C)C)c1 ?
Response: 12

Query: So what does the record say about half-life for CCc1cc(NC(=O)[C@H](O)c2cc(F)cc(F)c2)ccc1-c1cnc(N)c(C(=O)NC(C)C)c1 ?
Response: 14

Query: So what does the record say about half-life for CC(C)NC(=O)c1cc(-c2ccc(NC(=O)[C@H](O)c3cc(F)cc(F)c3)cc2Cl)cnc1N ?
Response: 12
